System: Mel-DCC-11-R
Assay: cell viability relative to DMSO control (fraction of DMSO control); higher = less cytotoxic, active = 0.8 or less
Details: 1 µM; 120 h; vemurafenib co-treatment 0 µM
Please reply with one of these outcomes: active, inactive

Worked cases, answers included:
[
  {
    "compound": "CC(C)Cn1cnc2c(N)nc3ccccc3c21",
    "discrete label": "inactive"
  },
  {
    "compound": "COc1ccc2cc3[n+](cc2c1OC)CCc1cc2c(cc1-3)OCO2",
    "discrete label": "inactive"
  },
  {
    "compound": "Cc1cn(-c2cc(NC(=O)c3ccc(C)c(Nc4nccc(-c5cnccn5)n4)c3)cc(C(F)(F)F)c2)cn1",
    "discrete label": "inactive"
  }
]

Now for another entry.
Asked: Recorded test call requested for CS(=O)(=O)OCCCCOS(C)(=O)=O
Given back: inactive
